// values below are reported melting point
value-kind: melting point

| smiles-notation | readout-value |
| --- | --- |
| O=C(O)c1cc(F)c(F)cc1NC(=O)c1cc(-c2ccc(Cl)cc2)oc1C(F)(F)F | 337.2 to 340.2 °C |
| O=C(Nc1cc(Cl)ccc1OCc1nnn[nH]1)c1cc(-c2ccc(Cl)cc2)oc1C(F)(F)F | 226.9 to 236.1 °C |
| O=C(Nc1cc(Cl)ccc1-c1nnn[nH]1)c1cnn(-c2ccc(Cl)cc2)c1C(F)(F)F | 176.3 to 180.4 °C |
| CS(=O)(=O)NC(=O)c1ccc(Cl)cc1NC(=O)c1cc(-c2ccc(Cl)cc2)oc1C(F)(F)F | 259 to 262 °C |
| Cc1oc(-c2ccc(Cl)cc2)cc1C(=O)Nc1cc(Cl)ccc1-c1nnn[nH]1 | 246.7 to 255.4 °C |
| Cc1oc(-c2ccc(Cl)cc2)cc1C(=O)Nc1cc(Cl)ccc1-c1noc(=O)[nH]1 | 248.1 to 250.9 °C |
| Cc1nc(-c2ccc(C(F)(F)F)cc2)sc1C(=O)Nc1cc(Cl)ccc1-c1nnn[nH]1 | 325 to 337.2 °C |
